Molecular target: Estrogen receptor (Homo sapiens) (UniProt P03372)
Sequence (P03372 whole entry, looked up): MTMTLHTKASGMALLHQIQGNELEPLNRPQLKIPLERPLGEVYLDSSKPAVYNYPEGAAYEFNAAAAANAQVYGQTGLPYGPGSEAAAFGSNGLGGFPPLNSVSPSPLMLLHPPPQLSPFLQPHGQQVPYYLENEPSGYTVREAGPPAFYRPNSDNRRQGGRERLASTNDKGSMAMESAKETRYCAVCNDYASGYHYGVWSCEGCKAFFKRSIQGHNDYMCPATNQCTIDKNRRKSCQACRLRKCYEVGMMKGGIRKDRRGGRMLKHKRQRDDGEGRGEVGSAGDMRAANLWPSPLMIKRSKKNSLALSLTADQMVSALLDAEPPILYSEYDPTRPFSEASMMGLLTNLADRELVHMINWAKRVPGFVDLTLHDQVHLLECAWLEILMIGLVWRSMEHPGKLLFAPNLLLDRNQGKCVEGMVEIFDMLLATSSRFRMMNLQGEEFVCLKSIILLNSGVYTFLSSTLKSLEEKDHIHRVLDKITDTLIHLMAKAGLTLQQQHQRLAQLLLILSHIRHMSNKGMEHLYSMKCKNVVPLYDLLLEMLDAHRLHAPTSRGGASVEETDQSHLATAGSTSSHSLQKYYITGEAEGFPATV
Test: qHTS assay to identify small molecule agonists of the estrogen receptor alpha (ER-alpha) signaling pathway (AID 743075);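 further: HEK293 GripTite cells with ER-alpha and UAS-driven beta-lactamase reporter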
Conditions: HEK293 ER-alpha-UAS-bla, beta-lactamase FRET ratio, 18 h; series mostly up to 70.1 µM
Records with an inconclusive call do not appear. The source made the active and inactive calls. The call rests on the fitted dose curve.
Outcome field: choose from True (active), False (inactive)

Nc1c(Br)cc([N+](=O)[O-])cc1[N+](=O)[O-]	False

Query string: Record request — test call for CCN(CC)C(C)C(=O)c1ccccc1 (stereo not drawn)
Result string: False

Query string: Record request — test call for C[N+](C)=CCl
Result string: False

Query string: Record request — test call for CC(C)NCC(O)c1ccc(N)c(C#N)c1 (stereo not drawn)
Result string: False

Query string: Record request — test call for OC(Cn1cncn1)(c1ccc(F)cc1)c1ccccc1F (stereo not drawn)
Result string: False

Query string: Record request — test call for O=C1CN=C(c2ccccc2)c2cc([N+](=O)[O-])ccc2N1
Result string: False

Query string: Record request — test call for C[C@@H]1CN(C2CCC(C#N)(c3ccc(F)cc3)CC2)CC[C@]1(C(=O)O)c1ccccc1 (stereo partly drawn)
Result string: False

Query string: Record request — test call for C#CCN1C(=O)COc2cc(F)c(N3C(=O)C4=C(CCCC4)C3=O)cc21
Result string: False

Query string: Record request — test call for CCCCOC(=O)[C@@H](C)Oc1ccc(Oc2ccc(C#N)cc2F)cc1
Result string: False

Query string: Record request — test call for BrCCCCCCBr
Result string: False
